Test system: HT29 colon
Test: NCI tumour cell line growth inhibition, 48 h
value kind: TGI

stdin: Consider the compound shown here: Fc1cc2nc3n(c2cc1F)C(c1c(F)cccc1F)SC3 (centres undefined) What is its recorded TGI?
stdout: > 100 µM

stdin: Look at this compound and give its reported TGI. CCC1C(NC(=O)OC)C(=O)N1[C@@H](C)c1ccccc1 (some centres undefined)
stdout: > 100 µM

stdin: Entry CCNCC(=O)Nc1ccc2c(c1)C(=O)c1ccc(NC(=O)CNCC)cc1C2=O has what TGI?
stdout: 9.87 µM

stdin: Item under review: Cc1cc(Cl)ccc1NC(=O)/C(=N\NC(C)(C)C)C(C#N)c1nc(-c2ccc([N+](=O)[O-])cc2)cs1 (centres undefined) . Reported TGI?
stdout: > 100 µM

stdin: I would be grateful if you could share the reported TGI for ClCc1ccccc1Cn1cnc2nc(Cl)nc(Cl)c21 .
stdout: > 100 µM

stdin: I would be grateful if you could share the reported TGI for Cc1ccc(S(=O)(=O)C2=Cc3ccccc3C2(O)c2ccccc2)cc1 (centres undefined) .
stdout: 36.1 µM

stdin: Could you share which TGI value was measured for O=C(COc1ccccc1)NNc1ccccc1 ?
stdout: > 300 µM

stdin: Entry CCOC(=O)C(C)NC(=O)NC12CC3CC(CC(F)(C3)C1)C2 (centres undefined) has what TGI?
stdout: > 100 µM

stdin: For the compound shown here, CCOC(=O)Cc1csc(NC(=O)C(OC(=O)c2ccc(Cl)cc2)c2ccccc2)n1 (centres undefined) , give the reported TGI.
stdout: 88 µM

---

Kindly supply the reported TGI values for the records listed here.
Tested on: OVCAR-4 ovarian
Assay: NCI tumour cell line growth inhibition, 48 h

stdin: Tell me the measured TGI of COc1cccc(/C=N\NC(=O)c2ccncc2)c1O , please.
stdout: > 100 µM

stdin: # lookup: TGI of CN(CCNC(=O)c1cn(C)c2c1ccc1ccccc12)CCNC(=O)c1cn(C)c2c1ccc1ccccc12
stdout: 16.2 µM

stdin: Look at this molecule and give its reported TGI. COc1ccccc1NC1Oc2cc3c(cc2C(c2cc(OC)c(OC)c(OC)c2)C1C)OCO3 (configuration not stated)
stdout: > 78.5 µM

stdin: I'd like to know its TGI. The molecule in question is CCOC(=O)c1ccc(N2NC(=O)/C(=C/c3ccc([N+](=O)[O-])o3)C2=O)cc1
stdout: 30.9 µM

stdin: Quick one: TGI of O=S1Nc2cccc(C(F)(F)F)c2S1 (configuration not stated) ?
stdout: > 100 µM

stdin: Please look up its TGI: O=CCCn1[nH]c(=O)ccc1=O
stdout: > 100 µM

stdin: So what does the record say about TGI for COC(=O)c1c2c(c(C)[n+]([O-])c1C)C(=O)C(NCc1ccccc1)=CC2=O ?
stdout: 2.4 µM

stdin: Requested read-out: TGI. Entry: COc1cccc2c1C(=O)c1c(O)c3c(c(O)c1C2=O)C[C@](O)(C(=O)CO)C[C@H]3O[C@@H]1C[C@@H](NC(=O)CCCN(C)C2(c3ccc(F)cc3)CC3CCC2C3)[C@H](O)[C@@H](C)O1 (some centres not stated)
stdout: 1.61 µM

stdin: Which measured TGI value corresponds to COc1cc(/C=N/NC(=O)c2c(Cl)c(Cl)c(Cl)c(Cl)c2-c2nc3ccc(C(=O)c4ccccc4)cc3[nH]2)ccc1O ?
stdout: > 100 µM

stdin: May I ask what TGI has been recorded for COC(=O)[C@H](Cc1cn(C)cn1)NC(=O)[C@H](CC(C)C)NC(=O)Nc1cc(C(F)(F)F)cc(C(F)(F)F)c1 ?
stdout: > 10 µM

stdin: Fill in: TGI of CCN1/C(=C/C(C)=C/c2sc3ccc4ccccc4c3[n+]2CC)Sc2ccc3ccccc3c21 is ___
stdout: 1.26 µM

stdin: Form field: reported TGI of COc1ccccc1C#C/C=C\C#Cc1ccccc1C#N
stdout: > 100 µM

stdin: Give its TGI value. Item: O=C1C(Cl)C(c2ccccc2Cl)N1n1cnc2ccccc2c1=O (configuration not stated)
stdout: > 100 µM

stdin: Quick one: TGI of c1ccc(/C(=N\Nc2nc3ccccc3[nH]2)c2ccccn2)cc1 ?
stdout: 4.99 µM

stdin: Endpoint output: TGI of C=C(C)CC(C(=O)O)c1ccc(C)cc1 (configuration not stated) . Value?
stdout: > 100 µM

stdin: I have this molecule here, CN(C)CC1(C)CC/C(=C\c2ccc(Cl)cc2)C1=O (configuration not stated) , and I need its recorded TGI.
stdout: > 100 µM

stdin: Can you look up the measured TGI of O=C1CN=C(c2ccc[nH]2)c2cc(Cl)ccc2N1 for me?
stdout: > 100 µM

---

I'd be grateful if you could share measured TGI for these entries.
System: SK-OV-3 ovarian
Assay: NCI tumour cell line growth inhibition, 48 h

stdin: I would be grateful if you could share the reported TGI for O=C(N/C(=C\c1ccccc1)c1nc2ccccc2c(=O)o1)c1ccccc1 .
stdout: > 100 µM

stdin: Can you share its TGI? I mean this molecule: Brc1ccc(-c2[nH]c3ccccc3c2/C=N\Nc2ccc(-c3nc4ccccc4[nH]3)cc2)cc1
stdout: > 100 µM

stdin: What value of TGI has been reported for the following molecule? OCC1OC(N2C=C(c3nc4ccccc4s3)C3C=CC=CC32)C(O)C(O)C1O (stereo not given)
stdout: > 50 µM

stdin: Endpoint output: TGI of COc1ccc(OC2(c3cc(OC)ccc3OC)OC(=O)c3ccccc32)cc1 (stereo not given) . Value?
stdout: > 100 µM

stdin: I would be grateful if you could share the reported TGI for COc1ccccc1C#C/C=C\C#Cc1ccccc1C#N .
stdout: > 100 µM

---

System: MDA-MB-435
Test: NCI tumour cell line growth inhibition, 48 h
value kind: TGI

stdin: Give the measured TGI of OCC1OC(N2C=C(c3nc4ccccc4s3)C3C=CC=CC32)C(O)C(O)C1O (stereo not drawn) .
stdout: 28.1 µM

stdin: What value of TGI has been reported for the following molecule? CCC1C(NC(=O)OC)C(=O)N1[C@@H](C)c1ccccc1 (stereo partly drawn)
stdout: > 100 µM

stdin: Item Cc1cccc(N=Nc2c(C)nn(C(=O)CC(=O)Nc3ccc(Cl)cc3)c2C)c1 has what recorded TGI?
stdout: > 100 µM

---

System: SR leukemia
Test: NCI tumour cell line growth inhibition, 48 h; in the data active = GI50 below about 0.43 µM; inactive = the rest
// allowed return values: active, inactive

stdin: Please share the test call associated with CCCCN(CCCC)P(=O)(Oc1ccccc1)Oc1ccccc1 .
stdout: inactive

stdin: Could you please tell me the result logged for CCc1cc2c(c(OCC(F)(F)F)c(C(=O)NC3CCN(C(=O)CO)CC3)n2C)c(=O)n1CC(=O)c1ccccc1 in this assay?
stdout: inactive

stdin: Which outcome was entered for the molecule CCOC(=O)c1ccc(N2NC(=O)/C(=C/c3ccc([N+](=O)[O-])o3)C2=O)cc1 in this test?
stdout: inactive

stdin: Tell me the recorded outcome of this test for Cc1ccc(/C(=N/NS(=O)(=O)c2cc(C)c(Cl)cc2Cl)Sc2cc(Cl)c(C)cc2S(N)(=O)=O)cc1 .
stdout: inactive

stdin: Returns: the outcome recorded for COc1cccc2c1C(=O)c1c(O)c3c(c(O)c1C2=O)C[C@](O)(C(=O)CO)C[C@H]3O[C@@H]1C[C@@H](NC(=O)CCCN(C)C2(c3ccc(F)cc3)CC3CCC2C3)[C@H](O)[C@@H](C)O1 (stereo not given in full) in this assay.
stdout: active

stdin: Please indicate how the test categorized COC(=O)c1c2c(c(C)[n+]([O-])c1C)C(=O)C(NCc1ccccc1)=CC2=O .
stdout: inactive

stdin: Test call, this molecule: Cn1cnc([N+](=O)[O-])c1S(=O)(=O)Oc1ccc(Cl)cc1
stdout: inactive

stdin: Give the logged outcome of this assay for the following molecule: Cc1cc(-c2nc3sc(C)cn3c2/C=N/N=C(N)N)c(C)s1
stdout: inactive

stdin: Each molecule tested received a call. Report the one for CCOc1ccccc1/C=N\N=C(N/N=C/c1ccccc1OCC)N/N=C/c1ccccc1OCC .
stdout: inactive

stdin: Could you please tell me the result logged for CCn1nc(C2CCN(C(=O)CCO)CC2)nc1-c1cnc(N)c(-c2nnc(C(C)(C)C)o2)n1 in this assay?
stdout: inactive

stdin: Recorded call for O=C(Nc1ccc(Cl)c(C(F)(F)F)c1)Nc1ccc(-c2cccnc2)cc1N1CCC(CO)CC1 ?
stdout: inactive

stdin: Recorded test call requested for O=c1[nH]c(-c2ccc(Cl)c(Cl)c2)cn1-c1ccc(Cl)cc1
stdout: inactive

stdin: Hello, I am checking results. What call was entered for COc1cc2c3c(n(CCCN=[N+]=[N-])c(=O)c2cc1OC)-c1ccc(F)cc1C3=O ?
stdout: inactive

stdin: // outcome(item) with item = CCCCCSc1ccc2nc(NC(=O)OCC)sc2c1
stdout: active

stdin: Query: recorded result category for Oc1nc(N2CCOCC2)sc1/C=C1\C=Nc2ccccc21 in this test
stdout: inactive

---

Please respond with reported TGI for every item in the list.
Test system: SW-620 colon
Test: NCI tumour cell line growth inhibition, 48 h
Form entry: value (µM) — number only.

stdin: Which TGI reading was recorded for the compound O=C(Nc1ccc(Cl)c(C(F)(F)F)c1)Nc1ccc(-c2cccnc2)cc1N1CCC(CO)CC1 ?
stdout: 27.2

stdin: # query: TGI of entry CCCCCCCCCCCCCCCCn1cc[n+](C)c1
stdout: 1.78

stdin: Which TGI is reported for this compound? CCCCN(CCCC)P(=O)(Oc1ccccc1)Oc1ccccc1
stdout: 19.4
